I'd appreciate it if you could supply pKB values for the items below.
Target: UniProt:P34976
Sequence (whole entry): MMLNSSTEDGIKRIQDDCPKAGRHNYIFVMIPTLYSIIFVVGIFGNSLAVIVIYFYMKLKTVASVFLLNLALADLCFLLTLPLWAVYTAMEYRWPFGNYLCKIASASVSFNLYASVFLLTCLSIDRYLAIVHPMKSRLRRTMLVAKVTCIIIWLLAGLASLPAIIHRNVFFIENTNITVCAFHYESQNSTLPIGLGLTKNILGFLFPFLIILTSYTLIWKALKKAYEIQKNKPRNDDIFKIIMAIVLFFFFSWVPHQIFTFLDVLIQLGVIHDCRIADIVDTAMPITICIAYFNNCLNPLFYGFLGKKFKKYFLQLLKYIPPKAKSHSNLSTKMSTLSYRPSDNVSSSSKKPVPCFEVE
Experiment: Affinity for Angiotensin II receptor, type 1 as antagonism of angII contractile effect in rabbit isolated thoracic aorta
Assay type: functional, tissue-based
Answers are plain numbers.

# annotated cases, reported pKB shown
Record summary for CCCCc1nc(Cl)c(C(=O)N[C@@H](C(=O)O)[C@H](C)CC)n1Cc1ccc2oc(-c3ccccc3-c3nn[nH]n3)c(Br)c2c1 : reported pKB = 9.2

response.value for CCCCc1nc(Cl)c(C(=O)N[C@@H](C)C(=O)O)n1Cc1ccc2oc(-c3ccccc3-c3nn[nH]n3)c(Br)c2c1 (field: pKB) = 8.9

The reported pKB of the compound CCCCc1nc(Cl)c(C(=O)NCC(=O)OCC)n1Cc1ccc2oc(-c3ccccc3-c3nn[nH]n3)c(Br)c2c1 was 9.3

For every item below, please supply its pKB.
1. CCCCc1ncc(C=C(Cc2cccs2)C(=O)O)n1Cc1ccc2oc(-c3ccccc3-c3nn[nH]n3)c(Br)c2c1
2. CCCCc1nc(Cl)c(C(=O)N[C@H](C)C(=O)O)n1Cc1ccc2oc(-c3ccccc3-c3nn[nH]n3)c(Br)c2c1
3. CCCCc1nc(Cl)c(C(=O)NCC(=O)O)n1Cc1ccc2oc(-c3ccccc3-c3nn[nH]n3)c(Br)c2c1
4. CCCCc1nc(Cl)c(C(=O)NCC(N)=O)n1Cc1ccc2oc(-c3ccccc3-c3nn[nH]n3)c(Br)c2c1

Output line:
[10.9, 9, 9.4, 9.4]

Lab note: measured pKB of CCCCc1nc(Cl)c(C(=O)N[C@H](Cc2ccccc2)C(=O)O)n1Cc1ccc2oc(-c3ccccc3-c3nn[nH]n3)c(Br)c2c1 was 8
